Source of measurements: PubChem BioAssay (Tox21)

runDescription: Nuclear factor erythroid 2-related factor 2/antioxidant responsive element (Nrf2/ARE) small molecule agonists: luciferase reporter gene qHTS assay in human keratinocytes (AID 1919969); further: nearly all actives have a fitted effect of over 35% in size
measurementConditions: KeratinoSens HaCaT ARE-luciferase, luminescence, 24 h; series mostly up to 92.4 µM
Inconclusive results are not listed. Calls of active or inactive are those of the source. The call rests on the fitted dose curve.
Please answer using one outcome listed in YES (active), NO (inactive)

Reference set, count: 8
- CNN: NO
- CCN[C@H](C)Cc1cccc(C(F)(F)F)c1: NO
- C[C@]12CC[C@H]3[C@@H](CCC4=CC(=O)CC[C@@H]43)[C@@H]1CC[C@@H]2OC(=O)CCc1ccccc1: NO
- CCC#N: NO
- N#CCCl: NO
- COc1cccc2c1cc([N+](=O)[O-])c1c(C(=O)O)cc3c(c12)OCO3: YES
- ClCc1ccccc1Cl: NO
- Cc1ccc([N+](=O)[O-])[c]2c1[O][Hg]2: YES

Switching to the query record.
Field: outcome | Entry: Cc1nnc(-c2ccccc2)c(=O)n1N
NO

----------
assayTarget: 5-hydroxytryptamine receptor 2A (Homo sapiens) (UniProt P28223)
Sequence (P28223 whole entry, looked up): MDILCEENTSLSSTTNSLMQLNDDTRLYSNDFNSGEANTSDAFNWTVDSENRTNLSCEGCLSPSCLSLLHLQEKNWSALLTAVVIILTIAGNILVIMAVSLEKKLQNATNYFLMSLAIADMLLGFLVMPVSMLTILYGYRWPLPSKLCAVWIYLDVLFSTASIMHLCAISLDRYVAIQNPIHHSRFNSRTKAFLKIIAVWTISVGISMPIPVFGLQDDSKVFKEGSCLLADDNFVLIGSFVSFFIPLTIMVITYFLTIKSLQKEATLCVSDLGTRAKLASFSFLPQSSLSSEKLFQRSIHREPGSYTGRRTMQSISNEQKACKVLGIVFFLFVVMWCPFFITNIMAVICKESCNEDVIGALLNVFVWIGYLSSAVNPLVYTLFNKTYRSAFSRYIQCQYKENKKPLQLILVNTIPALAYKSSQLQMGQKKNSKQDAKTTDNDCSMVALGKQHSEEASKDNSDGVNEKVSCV
runDescription: 5-hydroxytryptamine receptor 2A (HTR2A) small molecule agonists, cell-based qHTS assay (AID 1963587); further: nearly all actives have a fitted effect of over 30% in size
measurementConditions: HTR2A-CHO cells, calcium flux fluorescence, agonist mode; series mostly up to 76.8 µM
Results filed as inconclusive are left out. The source made the active and inactive calls. The call rests on the fitted dose curve.
Please answer using one outcome listed in 1.0 (active), 0.0 (inactive)

• C[C@H]1[C@H](c2ccc(Cl)cc2)SC(=O)N1C(=O)NC1CCCCC1 = 0.0
• O=S(=O)(O)C(F)(F)C(F)(F)C(F)(F)C(F)(F)F = 0.0

Field: outcome | Entry: O=C(O)C(Br)CBr (stereo unspecified)
0.0

Field: outcome | Entry: CC(C)CBr
0.0

Field: outcome | Entry: COP(N)(=S)Oc1ccccc1C(=O)OC(C)C (stereo unspecified)
0.0

Field: outcome | Entry: [Cl][Sn]([Cl])([Cl])[Cl]
0.0

Field: outcome | Entry: Oc1ccc(C2(c3ccc(O)cc3)c3ccccc3-c3ccccc32)cc1
0.0

Field: outcome | Entry: COc1cc(CCN)cc(OC)c1OC
1.0

Field: outcome | Entry: Nc1ccc(Cl)cc1C(=O)c1ccccc1F
0.0

Field: outcome | Entry: O=C(CCl)C(Cl)Cl
0.0

Field: outcome | Entry: CC(C)(C)c1ccc(CCOc2ncnc3ccccc23)cc1
0.0

Field: outcome | Entry: CCC(COC(=O)c1cc(OC)c(OC)c(OC)c1)(c1ccccc1)N(C)C (stereo unspecified)
0.0

Field: outcome | Entry: Cc1ccc2c(c1)C1CN(C)CCC1N2 (stereo unspecified)
1.0

Field: outcome | Entry: CNC(=O)O/N=C(\C)SC
0.0

----------
assayTarget: 5-hydroxytryptamine receptor 2A (Homo sapiens)
runDescription: 5-hydroxytryptamine receptor 2A (HTR2A) small molecule agonists, cell-based qHTS assay (AID 1963587); further: nearly all actives have a fitted effect of over 30% in size
measurementConditions: HTR2A-CHO cells, calcium flux fluorescence, agonist mode; series mostly up to 76.8 µM
Results filed as inconclusive are left out. The source made the active and inactive calls. Calls come from the whole dose curve.
Please answer using one outcome listed in 1 (yes) for active, 0 (no) for inactive

• CCCCCCCCCCCCCCCCCCn1cc[n+](C)c1 = 0 (no)
• O=CC=O = 0 (no)
• CCOc1cc(Oc2ccc(C(F)(F)F)cc2Cl)ccc1[N+](=O)[O-] = 0 (no)
• CO/N=C(\C(=O)OC)c1ccccc1CO/N=C(\C)c1cccc(C(F)(F)F)c1 = 0 (no)
• C=CCOC(=O)c1ccccc1N = 0 (no)

Switching to the query record.
Field: outcome | Entry: O=C(O)COc1ccc(Cl)cc1
0 (no)
